melting point values, listed per item

Nc1ccccc1N1CC(C(F)(F)F)OC1=O (configuration not stated): 74 to 76 °C

-- ask Report melting point for `O=C(O)CN1C(=O)c2ccccc2C(F)(F)C1=O` please.
-- reply 203 to 205 °C

-- ask Entry to check: `O=c1[nH]c2cc([N+](=O)[O-])ccc2o1`
-- reply 229 to 231 °C

-- ask Entry to check: `O=C(O)COc1ccc(F)cc1Cl`
-- reply 140 to 142 °C

-- ask Entry to check: `O=C1CCN(S(=O)(=O)c2cccs2)CC1`
-- reply 127 to 129 °C

-- ask Entry to check: `N#CC=Cc1ccc(C(F)(F)F)cc1`
-- reply 89 to 91 °C

-- ask Entry to check: CC(N)c1ccc(S(C)(=O)=O)c(F)c1 (configuration not stated)
-- reply 60 to 62 °C
